This collection of values is drawn from patent US9937115B2.

Molecular target: TRPA1 receptor (Homo sapiens, UniProt O75762)
Construct: expressed in transfected cells; host or cells: HEK cell line
Sequence (O75762 whole entry): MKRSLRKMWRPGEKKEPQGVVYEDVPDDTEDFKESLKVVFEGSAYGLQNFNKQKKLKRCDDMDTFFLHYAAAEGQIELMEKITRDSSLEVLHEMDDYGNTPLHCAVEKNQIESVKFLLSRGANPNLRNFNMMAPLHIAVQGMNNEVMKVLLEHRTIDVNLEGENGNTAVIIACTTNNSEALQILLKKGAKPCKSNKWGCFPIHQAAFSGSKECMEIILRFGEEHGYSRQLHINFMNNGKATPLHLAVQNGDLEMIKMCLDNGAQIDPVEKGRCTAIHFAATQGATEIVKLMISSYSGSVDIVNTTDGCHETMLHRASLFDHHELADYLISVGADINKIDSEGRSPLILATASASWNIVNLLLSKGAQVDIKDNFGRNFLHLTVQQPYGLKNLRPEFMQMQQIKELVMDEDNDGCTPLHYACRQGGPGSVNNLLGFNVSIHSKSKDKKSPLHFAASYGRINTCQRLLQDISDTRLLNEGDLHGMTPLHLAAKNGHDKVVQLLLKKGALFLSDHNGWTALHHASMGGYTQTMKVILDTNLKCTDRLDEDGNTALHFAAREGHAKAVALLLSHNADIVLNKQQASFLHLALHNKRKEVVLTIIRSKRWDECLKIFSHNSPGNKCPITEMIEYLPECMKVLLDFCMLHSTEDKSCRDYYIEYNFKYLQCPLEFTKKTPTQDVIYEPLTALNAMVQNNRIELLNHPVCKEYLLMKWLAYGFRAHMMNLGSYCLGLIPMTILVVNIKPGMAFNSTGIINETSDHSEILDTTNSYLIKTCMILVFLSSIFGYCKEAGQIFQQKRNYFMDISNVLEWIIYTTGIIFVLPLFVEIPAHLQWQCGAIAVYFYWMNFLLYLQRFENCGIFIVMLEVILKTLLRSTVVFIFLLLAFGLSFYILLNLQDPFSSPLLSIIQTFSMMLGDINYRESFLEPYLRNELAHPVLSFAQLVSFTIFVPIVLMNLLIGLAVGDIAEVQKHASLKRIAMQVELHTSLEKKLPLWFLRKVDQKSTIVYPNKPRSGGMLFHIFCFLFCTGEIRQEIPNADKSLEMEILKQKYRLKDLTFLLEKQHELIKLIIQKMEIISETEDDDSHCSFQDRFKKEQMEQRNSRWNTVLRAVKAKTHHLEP
Assay: cell-based
Conditions: HEK293; percentage of the control (allyl isothiocyanate) calcium count; material dissolved in DMSO at 100 micromolar; HEK cells with TRPA1; direct addition; read-out: TRPA1 Direct addition
Consider the following compounds and their measured activation at 100 µM readings.
Express the result in % but write the number alone.

Study these solved cases before continuing.
| compound | activation at 100 µM, % |
| --- | --- |
| CC1=C(CC=O)C(C)(C)CCC1 | -0.32 |
| CC/C=C\CCOC(=O)CCCCC [cis-3-Hexenyl Hexanoate] | 0.08 |
| O=C(OCc1ccccc1)c1ccccc1 [Benzyl Benzoate] | 53.9 |
| CCCCCO | -1.94 |
| C=CCOC(=O)CCCCC [Allyl Hexanoate] | 0.75 |

Value lookup for activation at 100 µM; key = COc1cc(/C=C/C(=O)O)ccc1O [Trans-Ferulic Acid]
-2.53

Fill in the blank: the reported activation at 100 µM of CCOC(=O)c1ccccc1 [Ethyl Benzoate] is ____.
-0.07

Dear colleague, I am looking for the recorded activation at 100 µM of the following compound: CCOC(=O)CC(C)C [Ethyl Isovalerate]
-0.05

Need activation at 100 µM, item CCCCCCC(=O)OCC [Ethyl Heptanoate]
0.23

Look up activation at 100 µM for this compound: `C=C1CC/C=C(\C)CC[C@@H]2[C@@H]1CC2(C)C`
0.21
